FYI, the data here is from patent US20190322750A1.

Each item that follows carries a reported absorbance at 490 nm.
# Assay Target: mouse PD-L1 protein (mouse, UniProt Q9EP73 19-238, limits assumed)
# Sequence (Q9EP73 19-238 limits assumed): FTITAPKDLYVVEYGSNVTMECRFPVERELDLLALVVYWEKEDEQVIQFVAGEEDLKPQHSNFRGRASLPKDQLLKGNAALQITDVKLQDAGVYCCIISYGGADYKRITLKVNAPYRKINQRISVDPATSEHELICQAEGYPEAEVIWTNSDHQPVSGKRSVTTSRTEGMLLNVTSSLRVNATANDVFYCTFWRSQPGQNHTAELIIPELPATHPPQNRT
# Experiment: ELISA on coated antigen, column mPD-L1

Binder	absorbance at 490 nm
PDL1-31D9 (antibody, V domains shown, Only FR/CDR pieces are tied to the clone) VH: QMQLVESGGGLVQPGGSLRLSCSASGFTFSSYVMHWVRQAPGKGLEYVSAISSNGGSTYYADSVKGRFTISRDNSKNTLYLQMSSLRSEDTAVYYCAREHFSTYSYGVDVWGPGTTVTVSS VL: DIVMTQTPLSLPVTPGEPASISCRSSQSLLDSDDGNTYLDWYLQKPGQSPQLLIYMISFRASGVPDRFSGSGSGTDFTLKISRVEAEDSGIYYCMQRVEFPYTFGQGTKLEIK	0.1
PDL1-23E10 (scFv, V domains shown) VH: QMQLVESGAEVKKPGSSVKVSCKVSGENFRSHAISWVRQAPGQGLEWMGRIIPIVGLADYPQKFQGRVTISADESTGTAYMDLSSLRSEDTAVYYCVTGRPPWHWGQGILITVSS VL: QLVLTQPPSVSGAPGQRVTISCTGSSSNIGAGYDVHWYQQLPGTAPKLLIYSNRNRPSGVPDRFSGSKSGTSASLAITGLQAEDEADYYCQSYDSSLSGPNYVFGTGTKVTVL	0.3
PDL1-31B7 (antibody, V domains shown, Only FR/CDR pieces are tied to the clone) VH: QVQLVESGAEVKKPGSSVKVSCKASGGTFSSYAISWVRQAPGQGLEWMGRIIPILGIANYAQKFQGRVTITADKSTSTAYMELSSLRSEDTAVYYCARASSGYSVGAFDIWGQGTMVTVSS VL: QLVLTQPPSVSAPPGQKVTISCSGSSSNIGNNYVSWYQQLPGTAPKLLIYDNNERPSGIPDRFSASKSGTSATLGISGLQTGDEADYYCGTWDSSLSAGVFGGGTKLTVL	1.8
PDL1-22B10 (antibody, V domains shown, Only FR/CDR pieces are tied to the clone) VH: QVQLVQSGAEVKKPGSSVKVSCRASGGTFSSYAISWVRQAPGQGLEWMGRIIPILGIANYAQKFQGRVTITADKSTSTAYMELSSLRSEDTAVYYCARDFVLSGSATVFDPWGQGTLVTVSS VL: QFVLTQPPSVSGAPGQRVTISCTGSSTNIGAGYDVHWYQQLPGKAPKVVIYGNSNRPSGVLDRFSASKSATSASLAITGLQAEDEADYYCQSYDSSLSGYVFGTGTKVTVL	0.2
